B1: glmS ribozyme (parent)
chain: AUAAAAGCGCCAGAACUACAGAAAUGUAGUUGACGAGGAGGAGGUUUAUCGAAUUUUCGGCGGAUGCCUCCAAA

- Variants of: B1
- Protocol: kcat; higher = faster cleavage; RNA array
- Conditions: with glucosamine-6-phosphate
Variants at the floor of the assay were thinned out.
Reported kcat is given for each of the following variants.
Readout type: kcat

                                change    data_value
 0                           C67G C70A   < 1e-05 s⁻¹
 1                           A39U G51A   < 1e-05 s⁻¹
 2                           A53G C61U  2.57e-05 s⁻¹
 3                            A6U A39G  0.000267 s⁻¹
 4                           U47C C67G  0.000337 s⁻¹
 5                           U65A U69G   5.5e-05 s⁻¹
 6                           U31A U45C   0.00168 s⁻¹
 7                           A42G U49G   0.00144 s⁻¹
 8                           G13C G41A  5.76e-05 s⁻¹
 9                           A12U A33U  0.000444 s⁻¹
10                           A52C C67U  1.21e-05 s⁻¹
11                           C10A U54G   < 1e-05 s⁻¹
12                           A15G G66U   0.00552 s⁻¹
13                           U47C G66U  2.83e-05 s⁻¹
14                           U54G G59A   9.1e-05 s⁻¹
15                           C16A U46C  6.68e-05 s⁻¹
16                           A14U G35U   < 1e-05 s⁻¹
17  G29C G32U A33U C50G U56G G66C U69C  1.64e-05 s⁻¹
18                           A15C U54G   0.00559 s⁻¹
19                           A15C U56C   0.00118 s⁻¹
20                           A48U U65A  5.33e-05 s⁻¹
21                      C58A A64G C71A  2.69e-05 s⁻¹
22                           G43A U45A  5.51e-05 s⁻¹
23                           U46C C68G  5.04e-05 s⁻¹
24                           G62U C68A  1.34e-05 s⁻¹
25                           U47C C68G  6.88e-05 s⁻¹
26                           A14U A39C   0.00121 s⁻¹
27                           G37A C68U  6.89e-05 s⁻¹
28             G7A A36U A39C C68A C71G     1e-05 s⁻¹
29                           C58U U69G  4.53e-05 s⁻¹
30                           G29C U45C  0.000137 s⁻¹
31                           U55G G59C   1.2e-05 s⁻¹
32                           A14C A64G   0.00265 s⁻¹
33                           A53C U69G  4.01e-05 s⁻¹
34                           A12C G38C  1.42e-05 s⁻¹
35                           G32A C50A   < 1e-05 s⁻¹
36                           A12C U47G   0.00307 s⁻¹
37                           U31A G66A    0.0119 s⁻¹
38                            A6U G60A   < 1e-05 s⁻¹
39                 U30A C58G G59A C70G   2.1e-05 s⁻¹
40                           C61U C71G   < 1e-05 s⁻¹
41                           G63A C70G  3.27e-05 s⁻¹
42                            G7A U31G  2.76e-05 s⁻¹
43                           A39C C70U  0.000652 s⁻¹
44                           A52G C67U  0.000905 s⁻¹
45                      A15G C16G C71G  0.000103 s⁻¹
